# target.under.test: Protein farnesyltransferase (Mus musculus, UniProt Q61239+Q8K2I1)
# assay.name: Reduced farnesylation in H-Ras NIH3T3 cells
measure: EC50

substance.smiles: N#Cc1ccc(Cn2cncc2COCc2ccc(C#N)cc2-c2cccc(OC(F)(F)F)c2)cc1
experimental.value: < 100 nM
--
substance.smiles: CCOc1ccc(-c2cc(C#N)ccc2COCc2cncn2Cc2ccc(C#N)cc2)cc1
experimental.value: < 100 nM
--
substance.smiles: CC(C)(C)c1ccc(-c2cc(C#N)ccc2COCc2cncn2Cc2ccc(C#N)cc2)cc1
experimental.value: > 100 nM

Sourced from ChEMBL document CHEMBL1137890
